Cited source: paper PMC10466331

- target-system: ER α-glucosidase GANAB (from Pompe disease Fibroblast lysates) (Homo sapiens)
- Construct: Cellular homogenates of Pompe fibroblasts (1 mg mL^−1) were used as protein source for GANAB; endogenous in cells; host or cells: Pompe disease fibroblasts (homogenate)
- protocol-text: fluorogenic substrate (4MU-α-D-glucopyranoside) assay on GANAB in Pompe fibroblast homogenates
- Type: biochemical
- experimental-conditions: Table S2; 4-MU alpha glucoside substrate; listed as 283; read-out: IC50 on GANAB
pIC50: −log10 of the molar value.
parameter: pIC50

[[record]]
chem_smiles = "CCCCOCCCCCN1C[C@H](O)[C@@H](O)[C@H](O)[C@H]1CO"
observed = 5.31


====

- target-system: ER α-glucosidase GANAB (from Pompe disease Fibroblast lysates) (Homo sapiens, UniProt Q14697)
- Construct: Cellular homogenates of Pompe fibroblasts (1 mg mL^−1) were used as protein source for GANAB; endogenous in cells; host or cells: Pompe disease fibroblasts (homogenate)
- Sequence (Q14697 29-944): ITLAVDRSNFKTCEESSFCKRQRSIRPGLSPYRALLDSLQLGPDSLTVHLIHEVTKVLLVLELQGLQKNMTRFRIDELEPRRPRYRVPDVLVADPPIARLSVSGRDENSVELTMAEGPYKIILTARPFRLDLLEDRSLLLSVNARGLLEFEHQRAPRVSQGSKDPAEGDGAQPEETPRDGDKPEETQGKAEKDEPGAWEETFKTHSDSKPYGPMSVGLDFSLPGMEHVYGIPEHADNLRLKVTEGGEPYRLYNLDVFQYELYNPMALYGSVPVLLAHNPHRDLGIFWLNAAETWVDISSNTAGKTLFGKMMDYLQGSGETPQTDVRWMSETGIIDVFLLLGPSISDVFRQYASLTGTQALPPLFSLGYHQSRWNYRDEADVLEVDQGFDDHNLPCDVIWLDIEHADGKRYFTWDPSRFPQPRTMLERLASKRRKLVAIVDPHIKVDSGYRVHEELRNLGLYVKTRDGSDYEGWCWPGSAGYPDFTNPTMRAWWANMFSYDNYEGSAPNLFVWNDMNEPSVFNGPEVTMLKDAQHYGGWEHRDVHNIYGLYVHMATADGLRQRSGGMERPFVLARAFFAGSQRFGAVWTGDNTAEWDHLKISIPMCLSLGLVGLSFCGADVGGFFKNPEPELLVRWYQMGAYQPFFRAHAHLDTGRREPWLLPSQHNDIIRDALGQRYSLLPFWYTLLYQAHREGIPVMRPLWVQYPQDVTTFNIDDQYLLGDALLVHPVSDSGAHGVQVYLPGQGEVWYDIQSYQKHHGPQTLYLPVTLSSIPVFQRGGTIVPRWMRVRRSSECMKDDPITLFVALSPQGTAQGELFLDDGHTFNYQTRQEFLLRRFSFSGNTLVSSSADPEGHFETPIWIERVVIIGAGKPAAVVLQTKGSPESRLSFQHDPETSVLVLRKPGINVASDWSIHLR
- Sequence (P14314 15-528 partner): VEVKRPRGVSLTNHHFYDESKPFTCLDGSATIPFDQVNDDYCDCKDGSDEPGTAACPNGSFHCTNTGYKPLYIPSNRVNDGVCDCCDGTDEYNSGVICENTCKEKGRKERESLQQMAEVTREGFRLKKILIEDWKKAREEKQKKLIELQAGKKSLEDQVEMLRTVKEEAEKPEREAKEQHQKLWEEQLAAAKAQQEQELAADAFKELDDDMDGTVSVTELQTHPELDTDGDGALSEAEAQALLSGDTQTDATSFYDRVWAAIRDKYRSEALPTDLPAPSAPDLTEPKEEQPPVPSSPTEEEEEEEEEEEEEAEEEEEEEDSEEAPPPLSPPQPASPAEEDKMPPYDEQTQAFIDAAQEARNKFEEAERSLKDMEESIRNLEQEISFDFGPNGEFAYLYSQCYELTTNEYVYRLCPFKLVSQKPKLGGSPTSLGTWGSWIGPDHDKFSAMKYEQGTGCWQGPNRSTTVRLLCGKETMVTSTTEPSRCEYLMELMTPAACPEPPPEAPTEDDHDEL
- protocol-text: fluorogenic substrate (4MU-α-D-glucopyranoside) assay on GANAB in Pompe fibroblast homogenates
- Format: biochemical
- experimental-conditions: Table S2; 4-MU alpha glucoside substrate; listed as 33; read-out: IC50 on GANAB
parameter: IC50 (µM)

[[record]]
chem_smiles = "CCCCCCCCN1C[C@H](O)[C@@H](O)[C@H](O)[C@H]1CO"
units_text = "µM"
observed = 16


====

- target-system: ER α-glucosidase GANAB (from Pompe disease Fibroblast lysates) (Homo sapiens)
- Construct: Cellular homogenates of Pompe fibroblasts (1 mg mL^−1) were used as protein source for GANAB; endogenous in cells; host or cells: Pompe disease fibroblasts (homogenate)
- protocol-text: fluorogenic substrate (4MU-α-D-glucopyranoside) assay on GANAB in Pompe fibroblast homogenates
- Type: biochemical
- experimental-conditions: Table S2; 4-MU alpha glucoside substrate; read-out: IC50 on GANAB
Parameter: IC50. Scope: all listed entries.
parameter: IC50 (µM)

[[record]]
chem_smiles = "N#Cc1ccc(-c2ccc(COCCCCCN3C[C@H](O)[C@@H](O)[C@H](O)[C@H]3CO)cc2)cc1"
units_text = "µM"
observed = 0.42

[[record]]
chem_smiles = "OC[C@@H]1[C@@H](O)[C@H](O)[C@@H](O)CN1CCCCCOCc1ccc(-c2ccc3c(c2)OCCO3)cc1"
units_text = "µM"
observed = 0.57

[[record]]
chem_smiles = "CCCCCCCCCOCCCCCN1C[C@H](O)[C@@H](O)[C@H](O)[C@H]1CO"
units_text = "µM"
observed = 2.8

[[record]]
chem_smiles = "OC[C@@H]1[C@@H](O)[C@H](O)[C@@H](O)CN1CCCCCOCc1ccc(-c2cc(C(F)(F)F)cc(C(F)(F)F)c2)cc1"
units_text = "µM"
observed = 14


====

- target-system: ER α-glucosidase GANAB (from Pompe disease Fibroblast lysates) (Homo sapiens)
- Construct: Cellular homogenates of Pompe fibroblasts (1 mg mL^−1) were used as protein source for GANAB; endogenous in cells; host or cells: Pompe disease fibroblasts (homogenate)
- protocol-text: fluorogenic substrate (4MU-α-D-glucopyranoside) assay on GANAB in Pompe fibroblast homogenates
- Format: biochemical
- experimental-conditions: Table S2; 4-MU alpha glucoside substrate; read-out: IC50 on GANAB
pIC50: −log10 of the molar value.
parameter: pIC50

[[record]]
compound = "OC[C@@H]1[C@@H](O)[C@H](O)[C@@H](O)CN1CCCCCOCc1ccc(-c2ccccc2)c(F)c1 [#ID 37]"
observed = 5.80

[[record]]
compound = "CCCCN1C[C@H](O)[C@@H](O)[C@@H](O)[C@H]1CO [#ID 153]"
observed = 4.72

[[record]]
compound = "C[C@@H](OCCCCCN1C[C@H](O)[C@@H](O)[C@H](O)[C@H]1CO)c1ccc(-c2ccccc2)cc1 [#ID 345]"
observed = 6.43

[[record]]
compound = "COc1ccc(-c2ccc(COCCCCCN3C[C@H](O)[C@@H](O)[C@H](O)[C@H]3CO)cc2)cc1 [#ID 305]"
observed = 6.42

[[record]]
compound = "OC[C@@H]1[C@H](O)[C@@H](O)[C@H](O)CN1CCOCc1ccccc1 [#ID 47]"
observed = 5.34

[[record]]
compound = "OC[C@@H]1[C@@H](O)[C@H](O)[C@@H](O)CN1CCCCCOCC12CC3CC(C1)CC(COCCCCCN1C[C@H](O)[C@@H](O)[C@H](O)[C@H]1CO)(C3)C2 [#ID 99]"
observed = 5.89

[[record]]
compound = "OC[C@@H]1[C@@H](O)[C@H](O)[C@@H](O)CN1CCCCCOCC12CC3CC(CC(C3)C1)C2 [Compound 13]"
observed = 5.27

[[record]]
compound = "CCCCCCCCOCCCCCN1C[C@H](O)[C@@H](O)[C@H](O)[C@H]1CO [#ID 25]"
observed = 5.39


====

- target-system: ER α-glucosidase GANAB (from Pompe disease Fibroblast lysates) (Homo sapiens)
- Construct: Cellular homogenates of Pompe fibroblasts (1 mg mL^−1) were used as protein source for GANAB; endogenous in cells; host or cells: Pompe disease fibroblasts (homogenate)
- protocol-text: fluorogenic substrate (4MU-α-D-glucopyranoside) assay on GANAB in Pompe fibroblast homogenates;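 also: inhibitor preincubated 30 min at 37 °C with homogenate, then GANAB activity read after 2 h with 3.0 mM fluorogenic substrate in McIlvaine buffer containing 0.1% BSA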
- Type: biochemical
- experimental-conditions: 4MU-α-glucoside substrate, pH 7.0; mean ± SD, 3 technical replicates; read-out: IC50 GANAB
pIC50: −log10 of the molar value.
parameter: pIC50

[[record]]
chem_smiles = "OC[C@@H]1[C@@H](O)[C@H](O)[C@@H](O)CN1CCCCCOCc1cc2ccccc2c2ccccc12"
target_system = "ER α-glucosidase GANAB (from Pompe disease Fibroblast lysates) (Homo sapiens)"
result_operator = "="
observed = 5.71

[[record]]
chem_smiles = "OC[C@H]1N[C@H](CCCCCOCC23CC4CC(CC(C4)C2)C3)[C@H](O)[C@@H](O)[C@@H]1O"
target_system = "ER α-glucosidase GANAB (from Pompe disease Fibroblast lysates) (Homo sapiens)"
result_operator = "<"
observed = 4.00

[[record]]
chem_smiles = "OC[C@@H]1[C@@H](O)[C@H](O)[C@@H](O)CN1CCCCCOCc1ccc(-c2ccccc2)cc1"
target_system = "ER α-glucosidase GANAB (from Pompe disease Fibroblast lysates) (Homo sapiens)"
result_operator = "="
observed = 5.08

[[record]]
chem_smiles = "OC[C@@H]1[C@@H](O)[C@H](O)[C@@H](O)CN1CCCCCOCC12CC3CC(CC(C3)C1)C2"
target_system = "ER α-glucosidase GANAB (from Pompe disease Fibroblast lysates) (Homo sapiens)"
result_operator = "="
observed = 5.27


====

- target-system: human recombinant lysosomal α-glucosidase GAA (Myozyme) (Homo sapiens, UniProt P10253)
- Construct: purchased Genzyme
- protocol-text: fluorogenic substrate (4MU-α-D-glucopyranoside) assay on rhGAA
- Assay type: biochemical
- experimental-conditions: Table S2; 4-MU alpha glucoside substrate; read-out: IC50 on rhGAA
pIC50: −log10 of the molar value.
parameter: pIC50

[[record]]
chem_smiles = "CCCCCN1C[C@H](O)[C@@H](O)[C@H](O)[C@H]1CO"
observed = 5.77

[[record]]
chem_smiles = "OC[C@@H]1[C@H](O)[C@@H](O)[C@H](O)CN1CCOCc1ccccc1"
observed = 6.26

[[record]]
chem_smiles = "OC[C@@H]1[C@@H](O)[C@H](O)[C@@H](O)CN1CCCCCOCc1cc2ccccc2c2ccccc12"
observed = 6.96

[[record]]
chem_smiles = "CCCCOCCOCCN1C[C@H](O)[C@@H](O)[C@H](O)[C@H]1CO"
observed = 5.41

[[record]]
chem_smiles = "OC[C@@H]1[C@@H](O)[C@H](O)[C@@H](O)CN1CCCCOCCC12CC3CC(CC(C3)C1)C2"
observed = 7.38

[[record]]
chem_smiles = "OC[C@@H]1[C@@H](O)[C@H](O)[C@@H](O)CN1CCCCCOCc1ccc(-c2ccccc2)c(F)c1"
observed = 7.43

[[record]]
chem_smiles = "O=C(CCCCCN1C[C@H](O)[C@@H](O)[C@H](O)[C@H]1CO)NC12CC3CC(CC(C3)C1)C2"
observed = 6.44

[[record]]
chem_smiles = "OC[C@@H]1[C@@H](O)[C@H](O)[C@@H](O)CN1CCCCCOCc1ccc(-c2ccncc2)cc1"
observed = 7.05

[[record]]
chem_smiles = "OC[C@@H]1[C@@H](O)[C@H](O)[C@@H](O)CN1CCCCCOCc1ccc(-c2ccnc(F)c2)cc1"
observed = 6.80

[[record]]
chem_smiles = "OC[C@@H]1[C@@H](O)[C@H](O)[C@@H](O)CN1CCCCCOCc1ccc(-c2ccc(F)cc2)cc1"
observed = 7.37

[[record]]
chem_smiles = "OC[C@@H]1[C@@H](O)[C@H](O)[C@@H](O)CN1CCCCCOCc1cccc(-c2ccccc2)c1"
observed = 7.27

[[record]]
chem_smiles = "OC[C@@H]1[C@@H](O)[C@H](O)[C@@H](O)CN1CCCCCOCc1ccc(-c2cccnc2)cc1"
observed = 7.07

[[record]]
chem_smiles = "CCCCCCCN1C[C@H](O)[C@@H](O)[C@H](O)[C@H]1CO"
observed = 6.04

[[record]]
chem_smiles = "OC[C@@H]1[C@@H](O)[C@H](O)[C@@H](O)CN1CCCCCOCc1ccc(-c2ccccc2)cc1F"
observed = 7.68

[[record]]
chem_smiles = "OC[C@@H]1[C@@H](O)[C@H](O)[C@@H](O)CN1CCCCCOCc1ccc(-c2cc(C(F)(F)F)cc(C(F)(F)F)c2)cc1"
observed = 5.62

[[record]]
chem_smiles = "OC[C@@H]1[C@H](O)[C@@H](O)[C@H](O)CN1CCCCCOCc1ccc(-c2ccccc2)cc1"
observed = 5.89

[[record]]
chem_smiles = "OC[C@@H]1[C@@H](O)[C@H](O)[C@@H](O)CN1CCCCCOCc1ccc(-c2ccc(Br)cc2)cc1"
observed = 7.64

[[record]]
chem_smiles = "COc1cccc(-c2ccc(COCCCCCN3C[C@H](O)[C@@H](O)[C@H](O)[C@H]3CO)cc2)c1"
observed = 7.82

[[record]]
chem_smiles = "OC[C@H]1N[C@H](CCCCCCOCC23CC4CC(CC(C4)C2)C3)[C@H](O)[C@@H](O)[C@@H]1O"
observed = 5.61

[[record]]
chem_smiles = "OC[C@@H]1[C@@H](O)[C@H](O)[C@@H](O)CN1CCCCCOCc1ccccc1"
observed = 6.12

[[record]]
chem_smiles = "N#Cc1cccc(-c2ccc(COCCCCCN3C[C@H](O)[C@@H](O)[C@H](O)[C@H]3CO)cc2)c1"
observed = 7.27

[[record]]
chem_smiles = "COc1ccccc1-c1ccc(COCCCCCN2C[C@H](O)[C@@H](O)[C@H](O)[C@H]2CO)cc1"
observed = 6.89

[[record]]
chem_smiles = "OC[C@@H]1[C@@H](O)[C@H](O)[C@@H](O)CN1CCCCCOCC(COCCCCCN1C[C@H](O)[C@@H](O)[C@H](O)[C@H]1CO)C12CC3CC(CC(C3)C1)C2"
observed = 6.66

[[record]]
chem_smiles = "OC[C@@H]1[C@@H](O)[C@H](O)[C@@H](O)CN1CCCCCOCc1ccc(-c2cncnc2)cc1"
observed = 7.09

[[record]]
chem_smiles = "OC[C@@H]1[C@@H](O)[C@H](O)[C@@H](O)CN1CCCCCOCc1ccc(-c2ccc3c(c2)OCCO3)cc1"
observed = 7.92

[[record]]
chem_smiles = "CC(C)=CCOCCCCCN1C[C@H](O)[C@@H](O)[C@H](O)[C@H]1CO"
observed = 6.22

[[record]]
chem_smiles = "CCCCCCCCCOCCCCCN1C[C@H](O)[C@@H](O)[C@H](O)[C@H]1CO"
observed = 6.55

[[record]]
chem_smiles = "Cc1ccc(-c2ccc(COCCCCCN3C[C@H](O)[C@@H](O)[C@H](O)[C@H]3CO)cc2)cc1"
observed = 7.43

[[record]]
chem_smiles = "N#Cc1ccccc1-c1ccc(COCCCCCN2C[C@H](O)[C@@H](O)[C@H](O)[C@H]2CO)cc1"
observed = 7.68

[[record]]
chem_smiles = "OC[C@@H]1[C@@H](O)[C@H](O)[C@@H](O)CN1CCCCCOCC1CCCCC1"
observed = 6.54

[[record]]
chem_smiles = "CC(C)(C)COCCOCCN1C[C@H](O)[C@@H](O)[C@H](O)[C@H]1CO"
observed = 6.14

